- test_protocol: Intrinsic clearance in human microsomes
- Type: ADME, Microsome
measured_property: CL (L/min)

1) c1ccc(Nc2nc3c(s2)CCCc2[nH]ncc2-3)nc1 10

1: Cc1cccc(Nc2nc3c(s2)CCc2[nH]ncc2-3)n1
2: c1ccc(Nc2nc(-c3cn[nH]c3)cs2)nc1
Prompt line: Of 1 and 2 , which one carries the higher reported CL? Provide the label of your selected option as the answer.
Response line: 1
(1: 48 L/min, 2: 11 L/min)

---

- assay_target: UniProt Q14833
- Sequence (Q14833 whole entry): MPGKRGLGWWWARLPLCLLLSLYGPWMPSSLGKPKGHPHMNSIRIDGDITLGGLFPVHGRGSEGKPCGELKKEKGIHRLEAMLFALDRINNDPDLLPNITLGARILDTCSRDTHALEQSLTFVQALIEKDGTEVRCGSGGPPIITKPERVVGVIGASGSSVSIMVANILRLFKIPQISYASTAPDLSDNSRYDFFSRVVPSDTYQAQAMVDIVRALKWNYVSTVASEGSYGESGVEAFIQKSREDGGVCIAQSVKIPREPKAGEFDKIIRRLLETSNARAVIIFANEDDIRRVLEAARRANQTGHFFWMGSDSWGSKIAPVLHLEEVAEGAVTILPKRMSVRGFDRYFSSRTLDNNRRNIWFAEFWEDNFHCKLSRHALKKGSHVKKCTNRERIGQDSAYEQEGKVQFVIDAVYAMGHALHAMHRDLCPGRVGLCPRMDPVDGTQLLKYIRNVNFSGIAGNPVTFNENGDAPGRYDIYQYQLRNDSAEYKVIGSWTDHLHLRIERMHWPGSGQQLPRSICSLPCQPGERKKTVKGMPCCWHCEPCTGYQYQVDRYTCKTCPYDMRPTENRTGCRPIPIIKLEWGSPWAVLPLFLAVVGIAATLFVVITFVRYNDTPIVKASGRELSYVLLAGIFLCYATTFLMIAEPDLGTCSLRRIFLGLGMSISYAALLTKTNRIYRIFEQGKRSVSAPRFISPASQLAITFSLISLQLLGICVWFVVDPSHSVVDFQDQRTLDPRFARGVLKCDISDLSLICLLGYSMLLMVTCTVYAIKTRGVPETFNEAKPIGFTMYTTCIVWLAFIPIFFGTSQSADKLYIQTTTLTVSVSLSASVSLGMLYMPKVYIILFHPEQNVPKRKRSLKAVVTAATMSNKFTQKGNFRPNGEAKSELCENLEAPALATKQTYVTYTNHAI
- test_protocol: Positive allosteric modulation of human mGlu4 receptor expressed in BHK cells assessed as potentiation of glutamate-induced response after 1 hr by FLIPR assay relative to glutamate
- Format: cell-based
measured_property: Emax (%)

1. O=C(Nc1cc(Cl)cc(Cl)c1)[C@H]1CCCC[C@H]1C(=O)O 120
2. c1csc(Nc2nc3c(s2)CCCc2n[nH]cc2-3)n1 35
3. OCc1cccc(Nc2nc3c(s2)CCCc2n[nH]cc2-3)n1 76

A: Cc1cccc(Nc2nc3c(s2)CCc2n[nH]cc2-3)n1
B: Cc1ccnc(Nc2nc3c(s2)CCCc2n[nH]cc2-3)n1
C: N#Cc1cccc(Nc2nc3c(s2)CCCc2n[nH]cc2-3)n1
Prompt line: Parameters: sort_field (Emax), sort_dir (desc). Field: ranking. Enter the labels in the order requested.
Response line: B, A, C
(B: 210%, A: 120%, C: 50%)

---

- assay_target: Metabotropic glutamate receptor 2 (Homo sapiens)
- Sequence (Q14416 whole entry): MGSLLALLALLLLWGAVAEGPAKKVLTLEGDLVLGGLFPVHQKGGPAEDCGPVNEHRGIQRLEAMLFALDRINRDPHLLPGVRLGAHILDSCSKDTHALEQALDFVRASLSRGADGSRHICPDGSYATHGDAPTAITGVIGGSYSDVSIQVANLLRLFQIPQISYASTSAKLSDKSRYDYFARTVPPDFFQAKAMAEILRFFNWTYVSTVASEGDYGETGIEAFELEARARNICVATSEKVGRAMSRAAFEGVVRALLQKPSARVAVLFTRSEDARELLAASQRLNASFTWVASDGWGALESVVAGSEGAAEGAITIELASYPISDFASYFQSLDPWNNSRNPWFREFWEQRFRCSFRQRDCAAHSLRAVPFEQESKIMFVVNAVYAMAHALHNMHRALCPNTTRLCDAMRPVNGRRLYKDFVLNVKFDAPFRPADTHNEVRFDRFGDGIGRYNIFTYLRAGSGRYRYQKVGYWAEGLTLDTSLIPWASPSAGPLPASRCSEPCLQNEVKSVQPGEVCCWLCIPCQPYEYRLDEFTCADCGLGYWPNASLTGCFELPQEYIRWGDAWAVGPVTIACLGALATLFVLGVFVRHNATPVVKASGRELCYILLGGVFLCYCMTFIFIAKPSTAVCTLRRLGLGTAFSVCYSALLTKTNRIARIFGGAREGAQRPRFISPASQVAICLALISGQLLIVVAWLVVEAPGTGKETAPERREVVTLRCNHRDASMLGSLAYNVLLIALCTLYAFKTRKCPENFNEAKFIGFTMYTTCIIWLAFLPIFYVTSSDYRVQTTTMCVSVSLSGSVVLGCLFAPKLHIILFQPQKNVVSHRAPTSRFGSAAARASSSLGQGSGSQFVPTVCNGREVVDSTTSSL
- test_protocol: Negative allosteric modulation of mGlu2 receptor
Item-by-item account of IC50

// known answers, use as guide
1. c1cnc(Nc2nc3c(s2)CCCc2[nH]ncc2-3)nc1 > 10 µM
2. c1ccc(Nc2nc3c(s2)CCc2[nH]ncc2-3)nc1 > 10 µM

Could you now consider this next compound?
Prompt line: Can you look up IC50 on Metabotropic glutamate receptor 2 (Homo sapiens) for c1ccc(Nc2nc3c(s2)CCCc2[nH]ncc2-3)nc1 ?
Response line: > 10 µM

---

- test_protocol: Apparent permeability of the compound by PAMPA assay
- Type: ADME
measured_property: Papp (×10⁻⁶ cm/s)

1) c1ccc(Nc2nc3c(s2)CCc2[nH]ncc2-3)nc1 3
2) COc1cccc(Nc2nc3c(s2)CCCc2[nH]ncc2-3)n1 0.1
3) Fc1cccc(Nc2nc3c(s2)CCCc2[nH]ncc2-3)n1 0.1
4) c1cnc(Nc2nc3c(s2)CCCc2[nH]ncc2-3)cn1 3.8

1: COc1ccnc(Nc2nc3c(s2)CCCc2[nH]ncc2-3)n1
2: COCCOc1cccc(Nc2nc3c(s2)CCCc2n[nH]cc2-3)n1
Prompt line: Of 1 and 2 , which one carries the higher reported Papp? Provide the label of your selected option as the answer.
Response line: 1

---

- test_protocol: Plasma protein binding in human
- Format: ADME, cell-free
- assay_context: read-out: PPB (converted)
measured_property: fraction unbound

// known answers, use as guide
1. c1cnc(Nc2nc3c(s2)CCCc2[nH]ncc2-3)nc1 0.031
2. c1ccc(Nc2nc3c(s2)CCCc2[nH]ncc2-3)nc1 0.006

A: c1ccc(Nc2nc3c(s2)CCc2[nH]ncc2-3)nc1
B: c1cnc(Nc2nc3c(s2)CCc2[nH]ncc2-3)nc1
Prompt line: Of A and B , which one carries the higher reported fraction unbound? Provide the label of your selected option as the answer.
Response line: B
(B: 0.036, A: 0.008)
